The entries below are paired with their reported pIC50.
# system: 3',5'-cyclic-AMP phosphodiesterase 4B (Homo sapiens)
# Sequence (Q07343 whole entry, the tested form may be a part): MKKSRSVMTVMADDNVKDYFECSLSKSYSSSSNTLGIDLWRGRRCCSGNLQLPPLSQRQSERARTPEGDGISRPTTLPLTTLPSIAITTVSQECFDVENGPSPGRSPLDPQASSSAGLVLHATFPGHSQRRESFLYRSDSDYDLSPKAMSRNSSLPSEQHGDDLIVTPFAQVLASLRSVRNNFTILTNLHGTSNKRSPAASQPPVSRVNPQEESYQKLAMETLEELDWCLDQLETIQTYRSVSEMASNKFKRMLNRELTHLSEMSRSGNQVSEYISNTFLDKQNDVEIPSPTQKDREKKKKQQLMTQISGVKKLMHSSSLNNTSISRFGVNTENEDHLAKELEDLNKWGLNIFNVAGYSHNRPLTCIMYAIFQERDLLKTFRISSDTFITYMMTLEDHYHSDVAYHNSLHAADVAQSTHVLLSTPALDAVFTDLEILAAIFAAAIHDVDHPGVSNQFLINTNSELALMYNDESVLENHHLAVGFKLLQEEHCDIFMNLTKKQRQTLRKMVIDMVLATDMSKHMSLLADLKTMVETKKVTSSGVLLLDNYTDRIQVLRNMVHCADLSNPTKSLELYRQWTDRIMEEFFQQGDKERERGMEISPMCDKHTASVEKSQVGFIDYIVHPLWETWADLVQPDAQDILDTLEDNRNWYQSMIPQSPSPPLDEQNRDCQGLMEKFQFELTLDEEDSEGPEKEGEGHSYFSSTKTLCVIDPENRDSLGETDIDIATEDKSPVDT
# protocol_notes: Inhibition of PDE4B catalytic domain by scintillation proximity assay
On this scale, pIC50 is minus log10 of a concentration expressed in M (mol/L).

# example entries with known answers
{"columns": ["smiles_structure", "pIC50"],
 "data": [
  ["CCn1nccc1NC1=C(C(N)=O)NNc2c(C)cc(S(=O)(=O)CC)cc21", 9.50],
  ["CC(C)(C)S(=O)(=O)c1ccc2c(c1)C(Nc1cncc(F)c1)=C(C(N)=O)NN2", 9.30]
]}

Next up:
Incoming: Which pIC50 is listed for Cc1cc(S(C)(=O)=O)cc2c(Nc3cccc(C#N)c3)c(C(N)=O)c(=O)[nH]c12 ?
Outgoing: 9.00
